- targetOrSystem: Histone-lysine N-methyltransferase NSD2 (Homo sapiens)
- Sequence (O96028 whole entry): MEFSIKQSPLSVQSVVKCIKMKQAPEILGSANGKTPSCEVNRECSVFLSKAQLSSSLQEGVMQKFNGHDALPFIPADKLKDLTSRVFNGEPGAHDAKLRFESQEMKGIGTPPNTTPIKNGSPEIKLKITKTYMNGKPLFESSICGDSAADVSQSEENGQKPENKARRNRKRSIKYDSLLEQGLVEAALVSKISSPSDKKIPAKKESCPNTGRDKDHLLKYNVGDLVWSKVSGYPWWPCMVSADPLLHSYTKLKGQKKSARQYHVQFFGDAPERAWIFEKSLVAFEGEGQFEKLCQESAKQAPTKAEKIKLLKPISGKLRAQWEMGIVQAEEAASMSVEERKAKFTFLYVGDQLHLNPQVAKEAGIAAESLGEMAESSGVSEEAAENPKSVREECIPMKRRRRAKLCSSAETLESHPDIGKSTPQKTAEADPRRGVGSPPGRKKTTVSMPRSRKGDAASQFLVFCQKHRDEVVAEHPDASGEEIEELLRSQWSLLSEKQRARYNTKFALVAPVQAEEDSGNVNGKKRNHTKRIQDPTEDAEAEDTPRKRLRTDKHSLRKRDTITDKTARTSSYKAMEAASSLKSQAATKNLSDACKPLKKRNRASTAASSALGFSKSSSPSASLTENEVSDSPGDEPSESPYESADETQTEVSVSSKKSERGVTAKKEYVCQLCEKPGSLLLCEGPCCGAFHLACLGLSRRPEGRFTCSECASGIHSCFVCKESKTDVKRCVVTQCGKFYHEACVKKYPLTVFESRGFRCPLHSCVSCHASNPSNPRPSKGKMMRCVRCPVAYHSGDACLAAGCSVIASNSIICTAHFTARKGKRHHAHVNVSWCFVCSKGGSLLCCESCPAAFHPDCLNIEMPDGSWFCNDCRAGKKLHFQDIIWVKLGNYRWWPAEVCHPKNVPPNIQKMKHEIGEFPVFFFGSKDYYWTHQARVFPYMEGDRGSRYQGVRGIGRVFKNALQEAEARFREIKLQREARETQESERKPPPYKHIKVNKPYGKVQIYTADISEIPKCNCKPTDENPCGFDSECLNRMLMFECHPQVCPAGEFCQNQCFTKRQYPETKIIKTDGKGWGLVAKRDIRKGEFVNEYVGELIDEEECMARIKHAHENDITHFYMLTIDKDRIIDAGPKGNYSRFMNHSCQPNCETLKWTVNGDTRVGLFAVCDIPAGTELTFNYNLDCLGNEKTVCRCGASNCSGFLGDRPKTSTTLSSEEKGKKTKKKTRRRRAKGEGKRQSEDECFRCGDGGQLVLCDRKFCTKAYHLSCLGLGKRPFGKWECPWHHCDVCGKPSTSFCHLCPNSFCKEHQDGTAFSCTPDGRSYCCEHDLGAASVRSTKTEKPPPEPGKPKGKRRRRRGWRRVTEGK
pIC50: −log10 of the molar value.
// reported pIC50 for each item listed

Answered examples (2):
>>> experimentalvalue("CNc1cc(-c2c(-c3c(C)cc(CN)cc3C)ncn2C)ccc1C#N")
"< 4.70"
>>> experimentalvalue("Cc1cc(NC(=O)OC(C)(C)C)cc(C)c1-c1ncn(C)c1-c1ccc(C#N)c2ccccc12")
"< 4.60"

Exercise: Any idea what its pIC50 is? The molecule is CCC(=O)c1cc(C)c(-c2ncn(C)c2-c2ccc(C#N)c3ccccc23)c(C)c1
Solution: < 4.66

Sourced from ChEMBL document CHEMBL5120900
